target: T1, bovine serum albumin (bovine, UniProt P02769 25-607); assay: sandwich EIA, rabbit anti-GP73 coated 1 ug/mL, BSA background, supernatant 1:125, HRP goat anti-mouse IgG Fc
T1 construct: also called BSA
T1 sequence (P02769 25-607 limits assumed): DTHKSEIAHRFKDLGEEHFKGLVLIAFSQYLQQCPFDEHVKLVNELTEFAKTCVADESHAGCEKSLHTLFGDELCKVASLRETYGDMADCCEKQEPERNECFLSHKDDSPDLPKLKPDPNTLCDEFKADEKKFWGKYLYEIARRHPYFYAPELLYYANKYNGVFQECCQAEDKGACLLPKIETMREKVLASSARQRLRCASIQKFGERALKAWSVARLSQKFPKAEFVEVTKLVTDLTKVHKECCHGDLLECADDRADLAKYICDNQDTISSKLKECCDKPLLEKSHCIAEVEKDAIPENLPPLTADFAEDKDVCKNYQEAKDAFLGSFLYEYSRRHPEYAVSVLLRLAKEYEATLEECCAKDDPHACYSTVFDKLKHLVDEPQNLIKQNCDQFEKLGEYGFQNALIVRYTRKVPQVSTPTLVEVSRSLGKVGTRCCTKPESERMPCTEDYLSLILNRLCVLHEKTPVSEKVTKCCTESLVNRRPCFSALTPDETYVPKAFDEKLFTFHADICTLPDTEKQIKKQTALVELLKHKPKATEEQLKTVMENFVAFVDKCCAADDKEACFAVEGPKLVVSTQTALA
Listing of recorded BSA Background OD (A492) by entry.
measured-quantity: BSA Background OD (A492)

1) anti-GP73 monoclonal antibody 1B-4863 (antibody, V domains shown, Biotin labelled in some assays; also called mAb 1B-4863; 1B-4863-Bt) VH: QVQLKESGPGLVAPSQSLSITCTVSGFSLTSYGVHWVRQSPGKGLEWLGVIWTGGSTNYNSALMSRLSISKDNSESQVFLKVNSLQTDDTGMYYCARDPGTDYFDYWGQGTTLTVSS VL: DIVMTQSHKFMSTSIGDRVSISCKASQDVSIDVSWYQQKPGQSPTLLIYSASYRYIGVPDRFTGSGSGTAFTFTISSVQAEDLAIYYCQQHFTTPLTFGAGTKLELKR
0.1 OD (A492)
2) anti-GP73 monoclonal antibody 1B-3440 (antibody, V domains shown, Biotin labelled in some assays; also called mAb 1B-3440; 1B-3440-Bt) VH: EVQLVETGGGLVQPKGSLKLSCAASGFTFNTNAMNWVRQAPGKGLEWVARIRTKRYNYTTFYADSVKDRFTISRDDSQSMLFLQMNNLKTEDTAMYYCVTGGTGTFDYWGQGTTLTVSS VL: EIVLTQSPTTMPASPGEKVTFTCSASSGISSNYLHWYQLKPGFSPKLLIYRTSNLASGVPARFSGGGSGTSYSLTIGTMEAEDVATYYCQQGFSIPLTFGAGTKLELKR
0.12 OD (A492)
3) anti-GP73 monoclonal antibody 1A-3187 (antibody, V domains shown, Biotin labelled in some assays) VH: QGQLQQSGAELMKPGASVKISCKATGYTIRSYWIEWVKQRPGHGLEWIGEILPGSGNTNYNEKFKGTATFTADTSSNTVYLHLSSLTSEDSAVYYCANGRGSYRYHWFAYWGQGTLVTVSP VL: DIVLTQSPASLAVSLGQRATISCKASQSVDYDGDSYMNWYQQKPGQPPKVLIYAASNLESGIPARFSGSGSGTDFTLNIHPVEEEDAATYYCQQSNEDPYTFGGGTKLEMKR
0.09 OD (A492)
4) anti-GP73 monoclonal antibody 1B-3246 (antibody, V domains shown, Biotin labelled in some assays; also called mAb 1B-3246; 1B-3246-Bt) VH: DVKLVESGGGLVKPGGSLKLSCAASGFTFSSYTMSWVRQTPEKRLEWVATISRGGTYIYYPDSVKGRFTISRDNAKNTLYLQMSSLKSEDTAIYYCTREYFSGDTYDYFDYWGQGTTLTVSS VL: EIVMTQAAFANPVTLGTSVSISCRSSKSLLHSNGITYLYWYLQKPGQSPQLLIYQMSNLASGVPDRFSSSGSGTDFTLRISRVEAEDVGIYYCAQNLELYTFGGGTKLEIKR
0.1 OD (A492)

Source: patent US20140271651A1
